STUDY_TARGET: T1, B7H3 (human, UniProt Q5ZPR3 29-534)
T1 sequence (looked up): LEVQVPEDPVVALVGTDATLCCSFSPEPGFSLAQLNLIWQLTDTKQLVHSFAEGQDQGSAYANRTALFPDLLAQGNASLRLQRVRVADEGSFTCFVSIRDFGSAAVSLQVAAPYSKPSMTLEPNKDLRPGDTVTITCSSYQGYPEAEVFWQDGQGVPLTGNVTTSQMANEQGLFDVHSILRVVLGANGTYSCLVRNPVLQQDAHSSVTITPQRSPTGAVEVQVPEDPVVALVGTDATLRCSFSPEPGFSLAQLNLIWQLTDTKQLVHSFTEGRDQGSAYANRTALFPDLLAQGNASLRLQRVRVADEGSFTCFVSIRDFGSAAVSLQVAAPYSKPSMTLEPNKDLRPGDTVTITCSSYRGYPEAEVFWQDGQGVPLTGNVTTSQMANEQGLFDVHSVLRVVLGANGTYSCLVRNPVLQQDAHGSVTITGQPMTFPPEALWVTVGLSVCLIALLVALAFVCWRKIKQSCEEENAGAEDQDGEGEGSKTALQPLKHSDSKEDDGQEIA
METHOD: cell-based or functional assay
MEASURE: Emax (%), ADC direct killing, NCI-H1650 (High), 3D

BINDER	MEASURED
ADC4-14 (antibody, human IgG1, kappa, V domains shown, conjugator-linker-payload on cysteine thiols after TCEP reduction (DAR8), maleimide hydrolysed; residues not numbered; structure given only as a drawing) VH: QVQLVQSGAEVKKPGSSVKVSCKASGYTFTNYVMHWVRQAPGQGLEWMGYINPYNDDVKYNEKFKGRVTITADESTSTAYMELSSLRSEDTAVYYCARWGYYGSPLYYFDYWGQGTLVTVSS VL: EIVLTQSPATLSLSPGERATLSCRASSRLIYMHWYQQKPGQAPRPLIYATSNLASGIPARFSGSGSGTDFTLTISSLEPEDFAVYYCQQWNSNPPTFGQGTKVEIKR	81.6%
